Here, each record is paired with measured Activity data.
System: KYSE-510
Assay: Cytotoxic activity against human KYSE-510 cell line at 20 uM expressed as percent growth value
Type: functional

Exercise: So what's the measured Activity for this one? N#C/C(=C\c1ccc([N+](=O)[O-])s1)c1n[nH]c(-c2ccccc2)n1
Solution: -21.7

Exercise: Here is the next compound: N#C/C(=C\c1ccc([N+](=O)[O-])o1)c1n[nH]c(Cc2ccccc2)n1
Solution: -20.7

Exercise: Param item: CN(C)c1ccc(/C=C(\C#N)c2n[nH]c(Cc3ccccc3)n2)cc1
Solution: -1.01

Exercise: // next record Cc1n[nH]c(/C(C#N)=C/c2ccc([N+](=O)[O-])s2)n1
Solution: -21.3

Exercise: Again, but for N#C/C(=C\c1ccc([N+](=O)[O-])s1)c1n[nH]c(Cc2ccccc2)n1
Solution: -21.3

Exercise: Similarly, N#C/C(=C\c1cccc([N+](=O)[O-])c1)c1n[nH]c(-c2ccccc2)n1 ?
Solution: 108

Exercise: // next record Cc1n[nH]c(/C(C#N)=C/c2cccc([N+](=O)[O-])c2)n1
Solution: 94.1

Exercise: Same again, this time with N#C/C(=C\c1ccc([N+](=O)[O-])s1)c1nc2ccccc2[nH]1
Solution: 20.5

Exercise: And the next one, N#C/C(=C\c1ccc([N+](=O)[O-])o1)c1n[nH]c(-c2ccccc2)n1 ?
Solution: -20.9

Exercise: What do you have for N#C/C(=C\c1ccc([N+](=O)[O-])o1)c1nc2ccccc2[nH]1 ?
Solution: -21.2

Exercise: Input Cc1n[nH]c(/C(C#N)=C/c2ccc([N+](=O)[O-])o2)n1
Solution: -21.3
